Measured target: PARG (Homo sapiens, UniProt Q86W56)
Construct: made in house
Sequence (Q86W56 whole entry): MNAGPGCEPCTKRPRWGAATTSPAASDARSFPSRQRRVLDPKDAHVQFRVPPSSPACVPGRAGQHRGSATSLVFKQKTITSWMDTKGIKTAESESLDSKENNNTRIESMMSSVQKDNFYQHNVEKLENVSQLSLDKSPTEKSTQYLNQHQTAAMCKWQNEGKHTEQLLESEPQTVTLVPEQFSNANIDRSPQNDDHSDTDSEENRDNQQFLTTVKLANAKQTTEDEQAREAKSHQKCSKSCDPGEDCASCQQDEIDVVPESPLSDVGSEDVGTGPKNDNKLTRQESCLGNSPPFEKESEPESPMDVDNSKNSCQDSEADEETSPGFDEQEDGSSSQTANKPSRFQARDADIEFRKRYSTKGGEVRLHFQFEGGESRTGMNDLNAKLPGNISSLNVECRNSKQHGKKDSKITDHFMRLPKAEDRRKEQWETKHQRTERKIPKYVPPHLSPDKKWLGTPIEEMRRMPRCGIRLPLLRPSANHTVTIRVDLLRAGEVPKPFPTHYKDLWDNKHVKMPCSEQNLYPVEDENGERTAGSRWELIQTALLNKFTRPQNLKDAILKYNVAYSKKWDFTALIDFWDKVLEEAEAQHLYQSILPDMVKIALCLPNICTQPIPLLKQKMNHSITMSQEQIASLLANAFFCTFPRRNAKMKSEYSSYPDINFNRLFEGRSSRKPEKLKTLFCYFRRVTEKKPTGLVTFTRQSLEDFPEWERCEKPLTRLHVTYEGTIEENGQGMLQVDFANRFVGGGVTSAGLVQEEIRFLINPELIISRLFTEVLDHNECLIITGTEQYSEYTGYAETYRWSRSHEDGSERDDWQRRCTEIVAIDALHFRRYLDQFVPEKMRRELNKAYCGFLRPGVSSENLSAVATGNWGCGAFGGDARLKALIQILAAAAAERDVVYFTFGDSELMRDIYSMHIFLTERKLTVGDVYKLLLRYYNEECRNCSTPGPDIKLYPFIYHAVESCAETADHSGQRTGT
Run description: Enzymatic inhibitory activity against PARG, HTRF assay
Assay type: biochemical
Test context: HTRF; PARylated PARP1 protein as substrate; 60 minutes at room temperature; read-out: IC50 against PARG enzyme
Experimental: In this experiment, the enzymatic inhibitory activity of the compounds of the present disclosure against PARG was determined using an HTRF (homogeneous time-resolved fluorescence) assay. HTRF assay reagents were purchased from PerkinElmer (Cat. Nos. 61HISTLB and 610SAXLB). The purified protein was prepared in-house. PARG enzyme reaction buffer: 50 mM Tris (pH 7.4), 0.1 mg/mL BSA, 3 mM EDTA, 0.4 mM EGTA, 1 mM DTT, 50 mM KCl, and 0.01% Tween 20. […]
Readout name: IC50 (nM)
Give the value, in units of nM, as a plain number.

These recorded examples may help you get a feel for the data.
compound="C[C@H]1CN(c2cc(S(=O)(=O)NC3(C)CC3)cc3c2nc(OC2CC2)n3-c2nnc(C(F)F)s2)C[C@H](C)N1 [Compound 077F]" u=nM observed_value=9.2
compound="CC(C)C(=O)N1CCN(c2cc(S(=O)(=O)NC3(C)CC3)cc3c2ncn3-c2nnc(C(F)F)s2)CC1 [Compound B002]" u=nM observed_value=11.6
compound="C=CCn1c(=O)n(-c2nnc(C(F)F)s2)c2cc(S(=O)(=O)NC3(C#N)CC3)cc(N3CCN(C(=O)C4CCC(=O)N4)CC3)c21 (stereo not shown) [Compound 076G]" u=nM observed_value=9
compound="C[C@H]1CN(c2cc(S(=O)(=O)NC3(C)CC3)cc3c2n2nc(C4CC4)nc2n3-c2nnc(C(F)F)s2)C[C@H](C)N1 [Compound 065Z]" u=nM observed_value=1
compound="CN(C)C(=O)N1CCN(c2cc(S(=O)(=O)NC3(C)CC3)cc3c2nnn3-c2nnc(C(F)F)s2)CC1 [Compound C002]" u=nM observed_value=48.2
compound="Cc1nc2c(N3CCN(C(=O)N(C)C)CC3)cc(S(=O)(=O)NC3(C#N)CC3)cc2n1-c1nnc(C(F)F)s1 [Compound B021]" u=nM observed_value=25.1

Q) API: value(readout= IC50, system= PARG (Homo sapiens, UniProt Q86W56), query= C[C@H]1CN(c2cc(S(=O)(=O)NC3(C)CC3)cc3c2nc(C2CC(F)(F)CO2)n3-c2nnc(C(F)F)s2)C[C@H](C)N1 (stereo partly shown) [Compound 079J] )
A) 1.8

Q) How about C=CCn1c(=O)n(-c2nnc(C(F)F)s2)c2cc(S(=O)(=O)NC3(C#N)CC3)cc(N3CCN(c4ncc[nH]4)CC3)c21 [Compound 067JD] ?
A) 31.6

Q) How about C=CCn1c(=O)n(-c2nnc(C(F)F)s2)c2cc(S(=O)(=O)NC3(C#N)CC3)cc(N3CCN(S(=O)(=O)N(C)C)CC3)c21 [Compound 074H] ?
A) 7.5

Q) How about Cn1ccnc1N1CCN(c2cc(S(=O)(=O)NC3(C)CC3)cc3c2n(C)c(=O)n3-c2nnc(C(F)F)s2)CC1 [Compound A040] ?
A) 5

Q) How about N#CC1(NS(=O)(=O)c2cc(N3CCN(C(=O)N4CCCC4)CC3)c3ncn(-c4nnc(C(F)F)s4)c3c2)CC1 [Compound B013] ?
A) 21.3

Q) How about C[C@H]1CN(c2cc(S(=O)(=O)NC3(C)COC3)cc3c2n2ncnc2n3-c2nnc(C(F)F)s2)C[C@H](C)N1 [Compound 065P] ?
A) 5.8

Q) How about C[C@H]1CN(c2cc(S(=O)(=O)NC3(C)CC3)cc3c(-c4nnc(C(F)F)s4)c(C4CCCO4)nn23)C[C@H](C)N1 (stereo partly shown) [Compound 083A] ?
A) 2.1
